This collection of values is drawn from patent US10005769B2.

Read-out record for DYRK1B (Homo sapiens (Human), UniProt Q9Y463): pIC50
Just so you know, pIC50 here is -log10 of the concentration in molar units; reply with that number alone.

Look over these answered cases.
[
  {
    "Line Notation": "CCN1CCN(C(=O)c2ccc3[nH]c(NC(=O)c4csc(-c5ccc6c(c5)CCO6)n4)nc3c2)CC1",
    "Measured On": "DYRK1B (Homo sapiens (Human), UniProt Q9Y463)",
    "pIC50": 8.66
  },
  {
    "Line Notation": "COCCNC(=O)c1ccc2[nH]c(NC(=O)c3csc(-c4ccc5c(c4)CCO5)n3)nc2c1",
    "Measured On": "DYRK1B (Homo sapiens (Human), UniProt Q9Y463)",
    "pIC50": 9.16
  },
  {
    "Line Notation": "O=C(Nc1nc2ccccc2[nH]1)c1csc(-c2ccc3c(c2)CCO3)n1",
    "Measured On": "DYRK1B (Homo sapiens (Human), UniProt Q9Y463)",
    "pIC50": 8.17
  }
]

Req: Determine from records and report pIC50 for `Cc1nsc(NC(=O)c2csc(-c3ccc4c(c3)CCO4)n2)n1`
Resp: 7.14

Req: Determine from records and report pIC50 for `Cc1cnc(NC(=O)c2csc(-c3ccc4c(c3)CCO4)n2)s1`
Resp: 7.56

Req: Determine from records and report pIC50 for `CNC(=O)c1n[nH]c(NC(=O)c2csc(-c3ccc4c(c3)CCO4)n2)n1`
Resp: 8.01

Req: Determine from records and report pIC50 for `O=C(Nc1nc[nH]n1)c1csc(-c2ccc3c(c2)CCO3)n1`
Resp: 7.33

Req: Determine from records and report pIC50 for `O=C(Nc1nnc(-c2ccncc2)s1)c1csc(-c2ccc3c(c2)CCO3)n1`
Resp: 7.50
